# target.desc: D-3-phosphoglycerate dehydrogenase (Homo sapiens)
# Sequence (O43175 whole entry, the tested form may be a part): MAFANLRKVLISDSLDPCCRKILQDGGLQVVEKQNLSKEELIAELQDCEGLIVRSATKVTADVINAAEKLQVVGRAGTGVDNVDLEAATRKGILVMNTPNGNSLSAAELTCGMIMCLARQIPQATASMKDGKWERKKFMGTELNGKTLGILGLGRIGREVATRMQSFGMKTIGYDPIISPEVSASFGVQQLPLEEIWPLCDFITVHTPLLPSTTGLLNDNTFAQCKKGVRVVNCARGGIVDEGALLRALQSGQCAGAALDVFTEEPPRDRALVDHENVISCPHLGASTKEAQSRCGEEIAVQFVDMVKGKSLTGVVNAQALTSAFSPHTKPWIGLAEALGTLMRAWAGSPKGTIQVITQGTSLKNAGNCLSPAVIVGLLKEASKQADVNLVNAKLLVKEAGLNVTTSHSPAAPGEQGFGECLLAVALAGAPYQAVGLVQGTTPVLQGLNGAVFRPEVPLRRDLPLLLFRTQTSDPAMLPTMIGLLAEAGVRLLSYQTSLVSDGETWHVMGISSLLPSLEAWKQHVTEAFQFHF
# method.notes: Inhibition of His6-tagged PHGDH (unknown origin) expressed in Escherichia coli BL21 assessed as effect on NADH fluorescence incubated for 60 mins using 3-PG as substrate in presence of 500 uM NAD+ and PSAT1 by diaphorase and resazurin dye based fluorescence assay
pIC50: −log10 of the molar value.
measured.attribute: pIC50

{"columns": ["compound", "reported"],
 "data": [
  ["CC(=O)NS(=O)(=O)N1CCC(NC(=O)c2cc3c(Cl)c(Cl)ccc3n2C)C(CC(=O)O)C1 (stereo unspecified)", "5.82 to 8.00"]
]}

* * *

# method.notes: Half life in mouse serum
# Assay type: ADME, cell-free

{"columns": ["structure.smiles.string", "units.symbol", "half-life"],
 "data": [
  ["CCOC(=O)CS(=O)(=O)c1ccc([C@@H](CO)NC(=O)c2cc3c(Cl)c(Cl)c(C)cc3n2C)cc1", "h", 2.25]
]}

* * *

# target.desc: D-3-phosphoglycerate dehydrogenase (Homo sapiens)
# method.notes: Inhibition of PHGDH in human MDA-MB-468 cells assessed as reduction in [13C]-serine incubated for 72 hrs using [13C]glucose as substrate by LC-MS/MS analysis
# Type: cell-based
measured.attribute: IC50

{"columns": ["structure.smiles.string", "target.desc", "reported"],
 "data": [
  ["CCOC(=O)CS(=O)(=O)c1ccc([C@@H](CO)NC(=O)c2cc3c(Cl)c(Cl)c(C)cc3n2C)cc1", "D-3-phosphoglycerate dehydrogenase (Homo sapiens)", "2000 nM"],
  ["Cc1cc2c(cc(C(=O)N[C@H](CO)c3ccc(S(=O)(=O)CC(=O)O)cc3)n2C)c(Cl)c1Cl", "D-3-phosphoglycerate dehydrogenase (Homo sapiens)", "2200 nM"]
]}

* * *

# method.notes: Protein binding in 10% fetal calf serum
# Type: ADME, cell-free, Bos taurus
# condition.details: cattle, read-out: PB (converted)

{"columns": ["structure.smiles.string", "fraction unbound"],
 "data": [
  ["Cc1cc2c(cc(C(=O)N[C@H](CO)c3ccc(S(=O)(=O)CC(=O)O)cc3)n2C)c(Cl)c1Cl", 0.17]
]}

* * *

# method.notes: Stability in rat liver microsomes relative to hepatic blood flow
# Type: ADME, Microsome
# condition.details: read-out: Stability
measured.attribute: hepatic extraction ratio

{"columns": ["structure.smiles.string", "measured.attribute", "reported"],
 "data": [
  ["Cc1cc2c(cc(C(=O)N[C@H](CO)c3ccc(S(=O)(=O)CC(=O)O)cc3)n2C)c(Cl)c1Cl", "hepatic extraction ratio", "< 0.24"]
]}

* * *

# target.desc: D-3-phosphoglycerate dehydrogenase (Homo sapiens)
# method.notes: Inhibition of N-terminal His6-tagged human PHGDH (4 to 315 residues) assessed as effect on NADH fluorescence incubated for 2 hrs using 3-PG substrate in presence of 19 uM NAD+ and PSAT1 by diaphorase based luminescence assay
pIC50: −log10 of the molar value.

{"columns": ["molecule", "target.desc", "censoring.sign", "pIC50"],
 "data": [
  ["C[C@@H](NC(=O)c1cc(-c2ccccc2)nn1C)c1ccc(N(CC(=O)O)S(C)(=O)=O)cc1", "D-3-phosphoglycerate dehydrogenase (Homo sapiens)", "=", 5.85],
  ["C[C@@H](NC(=O)c1cc(-c2ccccc2)nn1C)c1ccc(N)cc1", "D-3-phosphoglycerate dehydrogenase (Homo sapiens)", "=", 4.42],
  ["Cc1cc2c(cc1Cl)cc(C(=O)N[C@H](C)c1ccc(C(=O)O)cc1)n2C", "D-3-phosphoglycerate dehydrogenase (Homo sapiens)", "=", 7.29],
  ["C[C@@H](NC(=O)c1cc2c(Cl)c(Cl)ccc2n1C)c1ccc(C(=O)O)cc1", "D-3-phosphoglycerate dehydrogenase (Homo sapiens)", "=", 7.52],
  ["Cn1c(C(=O)NC(CO)c2ccccc2)cc2cc(Cl)ccc21 (racemic)", "D-3-phosphoglycerate dehydrogenase (Homo sapiens)", "=", 5.28],
  ["C[C@@H](NC(=O)c1cc(-c2ccccc2)nn1C)c1ccc(C(=O)O)cc1", "D-3-phosphoglycerate dehydrogenase (Homo sapiens)", "=", 6.40],
  ["CC(NC(=O)c1cc(-c2ccccc2)nn1C)c1ccc(CC(=O)O)cc1 (racemic)", "D-3-phosphoglycerate dehydrogenase (Homo sapiens)", "=", 6.10],
  ["COCC(NC(=O)c1cc2cc(Cl)ccc2n1C)c1ccccc1 (racemic)", "D-3-phosphoglycerate dehydrogenase (Homo sapiens)", "<", 4.00],
  ["C[C@@H](NC(=O)c1cc(-c2ccccc2)nn1C)c1ccc(C(=O)NS(C)(=O)=O)cc1", "D-3-phosphoglycerate dehydrogenase (Homo sapiens)", "=", 6.52]
]}
